# Experiment summary: Three-treatment crossover pharmacokinetics of IN nalmefene, three dosing regimens (Example 13)
# Condition set: human, plasma, other: intranasal (IN spray), 6 mg, […], Median; Time 4.00; T3: 6 mg nalmefene HCl IN, two 0.1 mL sprays in one nostril
Measured metric: concentration at 4 h
Reply with a number, then the unit it belongs to.

Inquiry: I'd like to know its concentration at 4 h. The compound in question is C=C1CC[C@@]2(O)[C@H]3Cc4ccc(O)c5c4[C@@]2(CCN3CC2CC2)[C@H]1O5 [Nalmefene]
Reply text: 4.89 ng/mL

###

# Experiment summary: Two-period crossover pharmacokinetics of nalmefene 3 mg IN vs 1.0 mg IM (Example 12)
# Condition set: human, plasma, other: intranasal, 3 mg, Mean plasma concentration, Treatment A 3.0 mg IN; 2.00 h
Measured metric: concentration at 2 h (ng/mL)
Reply numerically in ng/mL, unit not repeated.

Inquiry: I'd like to know its concentration at 2 h. The molecule in question is C=C1CC[C@@]2(O)[C@H]3Cc4ccc(O)c5c4[C@@]2(CCN3CC2CC2)[C@H]1O5 [Nalmefene]
Reply text: 4.03

###

# Experiment summary: Two-period crossover pharmacokinetics of nalmefene 3 mg IN vs 1.0 mg IM (Example 12)
# Condition set: human, plasma, intramuscular, 1 mg, Median plasma concentration, Treatment B 1.0 mg IM; 2.00 h
Measured metric: concentration at 2 h (ng/mL)
Reply numerically in ng/mL, unit not repeated.

Inquiry: I'd like to know its concentration at 2 h. The compound in question is C=C1CC[C@@]2(O)[C@H]3Cc4ccc(O)c5c4[C@@]2(CCN3CC2CC2)[C@H]1O5 [Nalmefene]
Reply text: 0.858

###

# Experiment summary: Three-treatment crossover pharmacokinetics of IN nalmefene, three dosing regimens (Example 13)
# Condition set: human, plasma, other: intranasal (IN) spray, 3 mg, […], Median, T1 (3 mg IN, one spray in one nostril); time 0.166
Measured metric: concentration at […] (ng/mL)
Reply numerically in ng/mL, unit not repeated.

Inquiry: I'd like to know its concentration at […]. The molecule in question is C=C1CC[C@@]2(O)[C@H]3Cc4ccc(O)c5c4[C@@]2(CCN3CC2CC2)[C@H]1O5 [Nalmefene]
Reply text: 6.28

###

# Experiment summary: Three-treatment crossover pharmacokinetics of IN nalmefene, three dosing regimens (Example 13)
# Condition set: human, plasma, other: intranasal (IN spray), 3 mg, AUCinf, mean, Treatment A (T1) 3 mg in one nostril
Measured metric: AUC(0-inf) (ng·h/mL)
Reply numerically in ng·h/mL, unit not repeated.

Inquiry: I'd like to know its AUC(0-inf). The molecule in question is `C=C1CC[C@@]2(O)[C@H]3Cc4ccc(O)c5c4[C@@]2(CCN3CC2CC2)[C@H]1O5`
Reply text: 46.8

###

# Experiment summary: Two-period crossover pharmacokinetics of nalmefene 3 mg IN vs 1.0 mg IM (Example 12)
# Condition set: human, plasma, im, 1 mg, AUC0-10 min, Treatment B: 1.0 mg nalmefene IM (gluteal muscle); plasma; Geo. Mean, n 68
Measured metric: AUC(0-t) (ng·h/mL)
Reply numerically in ng·h/mL, unit not repeated.

Inquiry: I'd like to know its AUC(0-t). The molecule in question is `C=C1CC[C@@]2(O)[C@H]3Cc4ccc(O)c5c4[C@@]2(CCN3CC2CC2)[C@H]1O5`
Reply text: 0.0639
